Form field: pIC50 (one value per entry).
Molecular target: MAT2A homodimer (Homo sapiens, UniProt P31153)
Construct: inferred from the Ni sepharose purification and imidazole elution; made in house; host or cells: SF9 insect cells, recombinant baculovirus (Bac to Bac, pFASTBAC1)
Sequence (P31153 whole entry): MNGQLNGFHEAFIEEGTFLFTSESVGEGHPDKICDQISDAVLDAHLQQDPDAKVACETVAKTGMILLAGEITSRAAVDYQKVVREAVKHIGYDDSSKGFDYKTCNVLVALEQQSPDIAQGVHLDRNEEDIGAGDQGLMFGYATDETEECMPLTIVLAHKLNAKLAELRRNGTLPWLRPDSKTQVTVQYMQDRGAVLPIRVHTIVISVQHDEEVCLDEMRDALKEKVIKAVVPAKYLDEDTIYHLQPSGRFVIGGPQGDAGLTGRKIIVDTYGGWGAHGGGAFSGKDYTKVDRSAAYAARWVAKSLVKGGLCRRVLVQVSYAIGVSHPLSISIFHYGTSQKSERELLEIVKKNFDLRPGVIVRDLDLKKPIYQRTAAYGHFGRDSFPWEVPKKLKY
Experiment: MAT2A biochemical assay (liberated phosphate, PiColorLock Gold)
Conditions: Table 5a; MAT2A biochemical assay; read-out: Enzyme Inhibition
pIC50: −log10 of the molar value.

// assay MAT2A homodimer (Homo sapiens, UniProt P31153), entry [2H]C([2H])([2H])Oc1ccc(N2C(=O)N(c3ccc4nc(C)n(C)c4c3)Cc3ccc(OCC(F)F)nc32)cc1 [Example 401] , pIC50 value = > 7.00

// assay MAT2A homodimer (Homo sapiens, UniProt P31153), entry COCc1ccc(N2C(=O)N(c3ccc(OC)cc3)Cc3cnc(NCC(F)(F)F)nc32)cc1 [Example 209] , pIC50 value = 6.00 to 7.00

----------
Tested on: HCT116 MTAP-/-
Test: Inhibition of cellular proliferation (Cell Titer Glo), HCT116 MTAP-/-
Format: cell-based, human
Settings: Homo sapiens, HCT-116, 96 h, Table 5a, 4 days, read-out: 4 Day Relative Growth Inhibition (MTAP −/−)
ASSAY_READOUT: IC50

# example entries with known answers
Sample [2H]C([2H])([2H])Oc1ccc(N2C(=O)N(c3ccc4nn(C)c(OC)c4c3)Cc3ccc(OCC(F)F)nc32)cc1 [Example 104] ; IC50 observed: < 0.1 µM

Sample CCOc1cc2c(cn1)CN(c1ccc3nn(C)cc3c1)C(=O)N2c1ccc(OC(F)F)cc1 [Example 187] ; IC50 observed: > 1 µM

Sample COc1ccc(N2Cc3cnc(NCC(F)(F)F)nc3N(c3ccc(-c4nc[nH]n4)cc3)C2=O)cc1 [Example 193] ; IC50 observed: 0.1 to 1 µM

Sample COc1ccc(N2C(=O)N(c3ccc4nn(C)cc4c3)Cc3ncc(OCC(F)F)nc32)cc1 [Example 180] ; IC50 observed: < 0.1 µM

Sample CCOc1ccc2c(n1)N(c1ccc(OC(F)F)cc1)C(=O)N(c1ccc(=O)n(C)c1)C2 [Example 107] ; IC50 observed: 0.1 to 1 µM

Next:
Sample Cn1cc2cc(N3Cc4cc(F)c(OCC(F)F)nc4N(c4ccc(OC(F)F)cc4)C3=O)ccc2n1 [Example 184] ; IC50 observed: 0.1 to 1 µM

Sample [2H]C([2H])([2H])Oc1ccc(N2C(=O)N(c3ccc4nn(C)cc4c3)Cc3ccc(OCC4CC4)nc32)cc1 [Example 164] ; IC50 observed: 0.1 to 1 µM

----------
Biological target: MAT2A homodimer (Homo sapiens, UniProt P31153)
Construct: inferred from the Ni sepharose purification and imidazole elution; made in house; host or cells: SF9 insect cells, recombinant baculovirus (Bac to Bac, pFASTBAC1)
Test: MAT2A biochemical assay (liberated phosphate, PiColorLock Gold)
Conditions: Table 5a; MAT2A biochemical assay; read-out: Enzyme Inhibition
pIC50: −log10 of the molar value.
Form field: pIC50 (one value per entry).

# example entries with known answers
Sample O=C1N(c2ccc3ncsc3c2)Cc2ccc(OCC(F)F)nc2N1c1ccc(OC(F)F)cc1 [Example 408] ; pIC50 observed: > 7.00

Sample COc1ccc(N2Cc3cnc(NCC(F)(F)F)nc3N(c3ccc(OC)nc3)C2=O)cc1 [Example 261] ; pIC50 observed: 6.00 to 7.00

Sample Cn1cc2cc(N3Cc4ccc(OCC(F)F)nc4N(c4ccc5c(ccn5C)c4)C3=O)ccc2n1 [Example 172] ; pIC50 observed: > 7.00

Sample COc1ccc(N2C(=O)N(c3ccc4nn(C)cc4c3)Cc3ccc(N4CCOCC4)nc32)cc1 [Example 157] ; pIC50 observed: 6.00 to 7.00

Sample CCOc1ccc2c(n1)N(c1ccc(OC(F)F)cc1)C(=O)N(c1ccc3nn(C)cc3c1)C2 [Example 131] ; pIC50 observed: > 7.00

Sample [2H]C([2H])([2H])Oc1ccc(N2C(=O)N(c3ccc4nn(C)cc4c3)Cc3ccc(OC(C)C(F)F)nc32)cc1 (stereo not shown) [Example 168] ; pIC50 observed: > 7.00

Would you kindly look at the next entry?
Sample [2H]C([2H])([2H])Oc1ccc(N2C(=O)N(c3ccc4nn(C)cc4c3)Cc3ccc(OC(C)C)nc32)cc1 [Example 167] ; pIC50 observed: > 7.00
